Every entry's value here was drawn from patent US20080139558A1.

target: human iNOS (Homo sapiens); test: DAN assay of nitric oxide production (hiNOS); details: enzyme expressed in HEK293 cells transiently transfected with human iNOS
Sequence (P35228 whole entry): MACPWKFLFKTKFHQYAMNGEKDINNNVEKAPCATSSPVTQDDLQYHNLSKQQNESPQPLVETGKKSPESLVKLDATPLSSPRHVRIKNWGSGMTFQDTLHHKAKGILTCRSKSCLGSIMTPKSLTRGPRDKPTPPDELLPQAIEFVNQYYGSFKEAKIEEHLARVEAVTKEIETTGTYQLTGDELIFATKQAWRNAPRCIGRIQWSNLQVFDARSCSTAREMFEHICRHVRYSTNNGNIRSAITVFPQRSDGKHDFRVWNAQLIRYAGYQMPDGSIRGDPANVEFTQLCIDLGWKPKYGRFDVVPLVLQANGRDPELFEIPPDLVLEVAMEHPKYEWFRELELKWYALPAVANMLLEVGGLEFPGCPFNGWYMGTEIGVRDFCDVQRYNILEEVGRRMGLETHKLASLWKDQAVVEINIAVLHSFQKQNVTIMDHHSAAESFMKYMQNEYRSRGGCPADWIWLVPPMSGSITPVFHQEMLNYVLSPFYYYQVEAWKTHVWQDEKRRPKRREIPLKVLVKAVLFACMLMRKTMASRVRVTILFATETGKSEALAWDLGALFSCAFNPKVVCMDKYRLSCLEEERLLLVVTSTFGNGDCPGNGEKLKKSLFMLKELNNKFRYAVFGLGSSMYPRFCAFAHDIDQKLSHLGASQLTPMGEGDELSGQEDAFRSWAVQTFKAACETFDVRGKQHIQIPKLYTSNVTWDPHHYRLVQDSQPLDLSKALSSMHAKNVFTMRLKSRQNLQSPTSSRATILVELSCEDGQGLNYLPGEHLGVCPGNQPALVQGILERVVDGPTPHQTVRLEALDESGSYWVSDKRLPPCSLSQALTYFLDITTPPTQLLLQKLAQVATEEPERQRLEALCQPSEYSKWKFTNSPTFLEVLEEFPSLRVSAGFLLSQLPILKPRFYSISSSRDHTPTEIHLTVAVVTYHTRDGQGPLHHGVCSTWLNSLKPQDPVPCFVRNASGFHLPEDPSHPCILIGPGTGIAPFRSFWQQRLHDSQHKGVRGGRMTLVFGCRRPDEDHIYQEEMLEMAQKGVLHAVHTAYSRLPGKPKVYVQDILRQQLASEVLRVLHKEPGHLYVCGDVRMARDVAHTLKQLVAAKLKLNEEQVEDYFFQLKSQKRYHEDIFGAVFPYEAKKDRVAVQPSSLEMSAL
pEC50: −log10 of the molar value.
This section presents compounds with their documented pEC50 values.

Some solved cases for reference:
> print(dat)
                                   compound  readoutkind  valuereported
1  Cc1ncccc1C(=O)N(Cc1cc(=O)[nH]c2c(F)cccc12)c1cccc(Cl)c1 [Example 71]        pEC50         < 5.30
2  Cc1ncsc1C(=O)N(Cc1cc(=O)[nH]c2cc(F)ccc12)c1cccc(Cl)c1 [Example 51]        pEC50         < 5.30
3  Cc1ncsc1C(=O)N(Cc1c(F)c(=O)[nH]c2c(F)cccc12)c1cccc(Cl)c1 [Example 108]        pEC50         ≥ 5.30
4  O=C(c1ccco1)N(Cc1cc(=O)[nH]c2c(F)cccc12)c1ccccc1 [Example 17]        pEC50         < 5.30
5  Cc1ncsc1S(=O)(=O)N(Cc1cc(=O)[nH]c2c(F)cccc12)c1cccc(Cl)c1 [Example 42]        pEC50         ≥ 5.30

Query: Quick one: give measured pEC50 for Cc1ncsc1C(=O)N(Cc1cc(=O)[nH]c2ccccc12)c1ccccc1 [Example 29]
Reply: < 5.30

Query: Please look at this compound and report its pEC50: CN(C)c1ccc(C(=O)N(Cc2cc(=O)[nH]c3c(F)cccc23)c2cccc(Cl)c2)cc1 [Example 76]
Reply: < 5.30

Query: Recall and state the measured pEC50 for Cc1ccncc1C(=O)N(Cc1c(F)c(=O)[nH]c2c(F)c(F)ccc12)c1cccc(Cl)c1 [Example 116] .
Reply: ≥ 5.30

Query: Please look at this compound and report its pEC50: O=C(c1cncs1)N(Cc1cc(=O)[nH]c2c(F)cccc12)c1cccc(Cl)c1 [Example 44]
Reply: < 5.30

Query: Item Cc1oncc1C(=O)N(Cc1cc(=O)[nH]c2ccccc12)c1ccccc1 [Example 31] : provide pEC50
Reply: < 5.30

Query: Identify the reported pEC50 for the following entry. CN(C)Cc1nc2ccccc2n1Cc1cc(=O)[nH]c2c(F)c(F)ccc12 [Example 198]
Reply: < 5.30

Query: Identify measured pEC50 corresponding to Cc1ncsc1C(=O)N(Cc1cc(=O)[nH]c2ccccc12)c1ccc(F)c(F)c1 [Example 41]
Reply: < 5.30
